- test-context: 298.15 K; 101.33 kPa; Liquid; Vibrating tube method
Listing: mass density of selected compounds
Just the number please, in kg/m3, no unit attached.

Query (compound): CCCCCCn1cc[n+](C)c1.[Br-] [3-hexyl-1-methyl-1H-imidazolium bromide] ; field requested: mass density
1229.2

Sample CCCCCCn1cc[n+](C)c1.[Cl-] [1-hexyl-3-methylimidazolium chloride] — what was its mass density?
1044.3

Consider the compound COC(C)=O [methyl ethanoate] and give its measured mass density.
927.3

Requested field: mass density. Item: CO [methanol]
787.1

Now look at this one.
Name the reported mass density value associated with the compound C[n+]1ccn(Cc2ccccc2)c1.[Cl-] [1-benzyl-3-methyl-1H-imidazolium chloride]
1192.8

FYI, the data here is from the NIST ThermoML archive (doi:10.1016/j.fluid.2015.07.045).
